Target desc: glucose/galactose binding protein (GGBP) (Escherichia coli)
Sequence (P0AEE5 24-332 limits assumed): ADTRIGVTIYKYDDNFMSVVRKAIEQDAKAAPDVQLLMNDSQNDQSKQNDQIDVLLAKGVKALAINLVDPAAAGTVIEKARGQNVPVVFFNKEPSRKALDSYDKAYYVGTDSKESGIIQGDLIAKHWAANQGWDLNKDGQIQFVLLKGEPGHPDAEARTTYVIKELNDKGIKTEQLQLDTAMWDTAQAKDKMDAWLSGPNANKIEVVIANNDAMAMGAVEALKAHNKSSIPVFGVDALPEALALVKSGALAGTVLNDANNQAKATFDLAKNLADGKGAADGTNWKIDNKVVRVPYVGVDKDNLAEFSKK
Run description: […] galactose competition binding assay
Result type: Ki (µM)
Supply the numeric figure in µM, leaving out any unit text.

Query string: glucose/galactose binding protein (GGBP) (Escherichia coli) / Ki / OC[C@H]1O[C@@H](OCCO[C@H]2[C@H](O)[C@@H](CO)OC(O)[C@@H]2O)[C@H](O)[C@@H](O)[C@@H]1O (stereo partly shown) : value?
Result string: 27
